# System: K. pneumoniae JIE4212
# applied conditions: K. pneumoniae JIE4212; MHB (melimine/Mel4 with 0.2% BSA, 0.01% acetic acid); mean MIC
Square brackets hold non-standard residues; d marks the D form. Peptide text beside a SMILES is read from it. Nspe(4-Br) = C[C@H](NCC(=O)O)c1ccc(Br)cc1; Nspe = C[C@H](NCC(=O)O)c1ccccc1; NDecylGly = CCCCCCCCCCNCC(=O)O; Nlys = NCCCCNCC(=O)O
measured endpoint: MIC of peptidomimetics

{"compound": "C[C@@H](c1ccc(Br)cc1)N(CC(=O)N(CCCCN)CC(=O)N(CC(=O)N(CC(=O)N(CCCCN)CC(N)=O)[C@@H](C)c1ccc(Br)cc1)[C@@H](C)c1ccc(Br)cc1)C(=O)CN(C(=O)CNCCCCN)[C@@H](C)c1ccc(Br)cc1 [TM14] (H-[Nlys][Nspe(4-Br)][Nspe(4-Br)][Nlys][Nspe(4-Br)][Nspe(4-Br)][Nlys]-NH2)", "value measured": "31.3 µg/mL"}
{"compound": "CCCCCCCCCCNCC(=O)N(CCCCN)CC(=O)N(CC(=O)N(CC(=O)N(CCCCN)CC(=O)N(CC(=O)N(CC(N)=O)[C@@H](C)c1ccccc1)[C@@H](C)c1ccccc1)[C@@H](C)c1ccccc1)[C@@H](C)c1ccccc1 [TM8] (H-[NDecylGly][Nlys][Nspe][Nspe][Nlys][Nspe][Nspe]-NH2)", "value measured": "7.8 µg/mL"}
